Assay: Acute toxicity LD50, rat
Conditions: in vivo, po
QUANTITY_KIND: LD50 (mg/kg)
The reply should be a number in mg/kg, with the unit left off.

Notebook: Nc1c2c(nc3c1CCCC3)CCCC2.O=C(O)CCC(=O)O [Crystal Form A] , LD50 read as 110

###

Assay: Acute toxicity LD50, mouse
Conditions: in vivo, po
QUANTITY_KIND: LD50

Notebook: Nc1c2c(nc3c1CCCC3)CCCC2.O=C(O)CCC(=O)O [Crystal Form A] , LD50 read as 66.6 mg/kg
